Experiment Notes: Pharmacokinetics after 21 days dosing in the efficacy study (plasma, tumor and brain concentrations; plasma AUC at steady state), Example 14
Format: in vivo, female BALB/c nude mice
Test Settings: mouse, plasma, po; 100 mg/kg p.o. QD x 21 days; 8 h; mean ± SEM
Method: Agents were tested in the A375 human melanoma xenografts. […] Dabrafenib, Compound 26 and Compound 141 in female BALB/c nude mice plasma (K2-EDTA), tumor and brain homogenate were analyzed by LC-MS/MS (Triple Quad 6500+ Low Mass). […]
Experimental Endpoint: concentration at 8 h (ng/mL)

>>> observed_result("CC(C)(C)c1nc(-c2cccc(NS(=O)(=O)c3c(F)cccc3F)c2F)c(-c2ccnc(N)n2)s1 [Dabrafenib, dabrafenib, reference compound]")
55.4

###

Experiment Notes: Pharmacokinetics after 21 days dosing in the efficacy study (plasma, tumor and brain concentrations; plasma AUC at steady state), Example 14
Type: in vivo, female BALB/c nude mice
Test Settings: mouse, plasma, po; 0.75 mg/kg p.o. BID x 21 days; 0.5 h; mean ± SEM
Experimental Endpoint: concentration at 0.5 h (ng/mL)

>>> observed_result("CCN(C)S(=O)(=O)Nc1ccc(F)c(Oc2ccc3ncn(C4CC5(CCN(C6CC7(C6)CN(c6cc8c(cc6F)c(N6CCC(=O)NC6=O)nn8C)C7)CC5)C4)c(=O)c3c2)c1C#N (stereo not shown)")
732

###

Experiment Notes: Example 7 pharmacokinetics assay for PKPD study (plasma, tumor, liver)
Format: in vivo, BALB/c nude mice
Test Settings: mouse, plasma, po; 100 mg/kg, p.o., single dose; 6 h; read-out: Concentration in Plasma (mean ± SEM)
Experimental Endpoint: concentration at 6 h (ng/mL)

>>> observed_result("CC(C)(C)c1nc(-c2cccc(NS(=O)(=O)c3c(F)cccc3F)c2F)c(-c2ccnc(N)n2)s1 [Dabrafenib, dabrafenib, reference compound]")
1140

###

This listing pairs molecules with measured concentration at 1 h.
Experiment Notes: Example 6 pharmacokinetics assay for PKPD study (plasma, tumor, liver)
Type: in vivo, BALB/c nude mice
Test Settings: mouse, tumor, po; 10 mg/kg, single dose; 1 h; read-out: Concentration in Tumor (mean ± SEM)
Experimental Endpoint: concentration at 1 h (ng/g)

>>> observed_result("CCN(C)S(=O)(=O)Nc1ccc(F)c(Oc2ccc3ncn(C4CC5(CCN(C6CCC(c7cc8c(cc7F)c(N7CCC(=O)NC7=O)nn8C)CC6F)CC5)C4)c(=O)c3c2)c1C#N (single isomer, unassigned)")
1650
>>> observed_result("Cn1nc(N2CCC(=O)NC2=O)c2cc(F)c(C3CCC(N4CCC5(CC4)CC(n4cnc6ccc(Oc7c(F)ccc(NS(=O)(=O)C8CCCC8)c7C#N)cc6c4=O)C5)CC3)cc21 (single isomer, unassigned)")
232
>>> observed_result("CCN(C)S(=O)(=O)Nc1ccc(F)c(Oc2ccc3ncc([C@@H]4COC5(CCN(C6CCC(c7cc8c(cc7F)c(N7CCC(=O)NC7=O)nn8C)CC6)CC5)C4)nc3c2)c1C#N (single isomer, unassigned)")
513

###

Experiment Notes: Pharmacokinetics in female BALB/c nude mice bearing A375 xenografts, 1 day dosing (PK and PD study): plasma, tumor and brain concentrations, AUC
Format: in vivo
Test Settings: mouse, tumor, po, 5 mg/kg, 5 mg/kg p.o. BID × 1 day; post 2nd dose; 24 h; read-out: Mean Concentration in Tumor ± SEM
Experimental Endpoint: concentration at 24 h (ng/g)

>>> observed_result("CCN(C)S(=O)(=O)Nc1ccc(F)c(Oc2ccc3ncn(C4CC5(CCN(C6CC7(C6)CN(c6cc8c(cc6F)c(N6CCC(=O)NC6=O)nn8C)C7)CC5)C4)c(=O)c3c2)c1C#N (stereo not shown)")
6.26

###

Experiment Notes: Pharmacokinetics in female BALB/c nude mice bearing A375 xenografts, 1 day dosing (PK and PD study): plasma, tumor and brain concentrations, AUC
Format: in vivo
Test Settings: mouse, plasma, po, 1.5 mg/kg, 1.5 mg/kg p.o. BID × 1 day; post 2nd dose; 0.5 h; read-out: Mean Concentration in Plasma ± SEM
Experimental Endpoint: concentration at 0.5 h (ng/mL)

>>> observed_result("CCN(C)S(=O)(=O)Nc1ccc(F)c(Oc2ccc3ncn([C@H]4COC5(CCN(C6CC7(C6)CN(c6cc8c(cc6F)c(N6CCC(=O)NC6=O)nn8C)C7)CC5)C4)c(=O)c3c2)c1C#N")
1580

###

Experiment Notes: Pharmacokinetics after 21 days dosing in the efficacy study (plasma, tumor and brain concentrations; plasma AUC at steady state), Example 14
Assay type: in vivo, female BALB/c nude mice
Test Settings: mouse, tumor, po; 5 mg/kg p.o. BID x 21 days; 24 h; read-out: Concentration in Tumor
Experimental Endpoint: concentration at 24 h (ng/g)

>>> observed_result("CCN(C)S(=O)(=O)Nc1ccc(F)c(Oc2ccc3ncn(C4CC5(CCN(C6CC7(C6)CN(c6cc8c(cc6F)c(N6CCC(=O)NC6=O)nn8C)C7)CC5)C4)c(=O)c3c2)c1C#N (stereo not shown)")
79.3

###

Experiment Notes: Pharmacokinetics in female BALB/c nude mice bearing A375 xenografts, 1 day dosing (PK and PD study): plasma, tumor and brain concentrations, AUC
Format: in vivo
Test Settings: mouse, plasma, po, 5 mg/kg, 5 mg/kg p.o. BID × 1 day; post 2nd dose; 24 h; read-out: Mean Concentration in Plasma ± SEM
Experimental Endpoint: concentration at 24 h

>>> observed_result("CCN(C)S(=O)(=O)Nc1ccc(F)c(Oc2ccc3ncn(C4CC5(CCN(C6CC7(C6)CN(c6cc8c(cc6F)c(N6CCC(=O)NC6=O)nn8C)C7)CC5)C4)c(=O)c3c2)c1C#N (stereo not shown) [Compound 141]")
"4.28 ng/mL"

###

Examples of compounds with documented GI50 follow.
Tested on: A375-NRAS^Q61K cells
Experiment Notes: CTGlo Cell Viability Assay, A375-NRAS^Q61K (A375.11) cells, 96 hours
Type: cell-based, human
Test Settings: Homo sapiens, 96 h, A375.11 (A375-NRAS^Q61K) cells
Experimental Endpoint: GI50

>>> observed_result("CCN(C)S(=O)(=O)Nc1ccc(F)c(Oc2ccc3ncn(CC4CCN(C5CC6(C5)CN(c5cc7c(cc5F)c(N5CCC(=O)NC5=O)nn7C)C6)CC4)c(=O)c3c2)c1C#N [Compound 258]")
"> 10000 nM"
>>> observed_result("CCN(C)S(=O)(=O)Nc1ccc(F)c(C(=O)c2ccc3ncn(C4CC5(CCN(C6CC7(C6)CN(c6cc8c(cc6F)c(N6CCC(=O)NC6=O)nn8C)C7)CC5)C4)c(=O)c3c2)c1F (stereo not shown) [Compound 304]")
"1000 to 10000 nM"
>>> observed_result("CN(CCO)S(=O)(=O)Nc1ccc(F)c(Oc2ccc3ncn(C4CC5(CCN(C6CC7(C6)CN(c6cc8c(cc6F)c(N6CCC(=O)NC6=O)nn8C)C7)CC5)C4)c(=O)c3c2)c1C#N (stereo not shown) [Compound 151]")
"1000 to 10000 nM"
>>> observed_result("CCN(C)S(=O)(=O)Nc1ccc(F)c(Oc2ccc3ncn([C@@H]4COC5(C4)CN(C4CC6(C4)CN(c4cc7c(cc4F)c(N4CCC(=O)NC4=O)nn7C)C6)C5)c(=O)c3c2)c1C#N [Compound 311]")
"1000 to 10000 nM"
>>> observed_result("CO[C@@H]1CCN(S(=O)(=O)Nc2ccc(F)c(Oc3ccc4ncn([C@H]5COC6(CCN(C7CC8(C7)CN(c7cc9c(cc7F)c(N7CCC(=O)NC7=O)nn9C)C8)CC6)C5)c(=O)c4c3)c2C#N)C1 [Compound 144]")
"< 1000 nM"
>>> observed_result("CCN(C)S(=O)(=O)Nc1ccc(F)c(Oc2ccc3ncn(C4CC5(CCC(N6CC[C@H](c7cc8c(cc7F)c(N7CCC(=O)NC7=O)nn8C)C(F)(F)C6)CC5)C4)c(=O)c3c2)c1C#N (stereo partly shown) [Compound 224]")
"< 1000 nM"
>>> observed_result("CN(CCO)S(=O)(=O)Nc1ccc(F)c(Oc2ccc3ncn([C@H]4COC5(CCN([C@H]6C[C@@H](c7ccc(NC8CCC(=O)NC8=O)cc7F)C6)CC5)C4)c(=O)c3c2)c1C#N (stereo partly shown) [Compound 168]")
"> 10000 nM"
>>> observed_result("CCN(C)S(=O)(=O)Nc1ccc(F)c(Oc2ccc3ncn(CC4CCN(C5CCN(c6cc7c(cc6F)c(N6CCC(=O)NC6=O)nn7C)CC5)CC4)c(=O)c3c2)c1C#N [Compound 264]")
"1000 to 10000 nM"
>>> observed_result("CCN(C)S(=O)(=O)Nc1ccc(F)c(Oc2ccc3ncn([C@H]4COC5(CCN(C6CCC(c7cc8c(cc7F)c(N7CCC(=O)NC7=O)nn8C)CC6)CC5)C4)c(=O)c3c2)c1F (single isomer, unassigned) [Compound 71]")
"< 1000 nM"
>>> observed_result("CCN(C)S(=O)(=O)Nc1ccc(F)c(Oc2ccc3ncn([C@H]4COC5(C4)CN(C4CCN(c6cc7c(cc6F)c(N6CCC(=O)NC6=O)nn7C)CC4)C5)c(=O)c3c2)c1C#N [Compound 309]")
"> 10000 nM"
>>> observed_result("Cn1nc(N2CCC(=O)NC2=O)c2cc(F)c(N3CC4(CC(N5CCC6(CC5)C[C@@H](n5cnc7ccc(Oc8c(F)ccc(NS(=O)(=O)C9CCOCC9)c8C#N)cc7c5=O)CO6)C4)C3)cc21 [Compound 252]")
"> 10000 nM"
>>> observed_result("CCN(C)S(=O)(=O)Nc1ccc(F)c(Oc2ccc3ncn([C@@H]4CO[C@@]5(CCN(C6CCC(c7cc8c(cc7F)c(N7CCC(=O)NC7=O)nn8C)CC6)C5)C4)c(=O)c3c2)c1C#N (single isomer, unassigned) [Compound 286]")
"< 1000 nM"
>>> observed_result("CCN(C)S(=O)(=O)Nc1ccc(F)c(Oc2ccc3ncn(C4CCN(C5CC6(CCN(c7cc8c(cc7F)c(N7CCC(=O)NC7=O)nn8C)CC6)C5)CC4)c(=O)c3c2)c1C#N [Compound 274]")
"< 1000 nM"
>>> observed_result("CCN(C)S(=O)(=O)Nc1ccc(F)c(Oc2ccc3ncn([C@H]4COC5(CCN(C6CCC(c7ccc(N[C@H]8CCC(=O)NC8=O)cc7F)CC6)CC5)C4)c(=O)c3c2)c1C#N (single isomer, unassigned) [Compound 3]")
"< 1000 nM"
>>> observed_result("CCN(C)S(=O)(=O)Nc1ccc(F)c(Oc2ccc3ncn([C@H]4COC5(CCN(CC6CCN(c7cc8c(cc7F)c(N7CCC(=O)NC7=O)nn8C)CC6)CC5)C4)c(=O)c3c2)c1C#N [Compound 251]")
"1000 to 10000 nM"
>>> observed_result("Cn1nc(N2CCC(=O)NC2=O)c2cc(F)c(N3CC4(CC(N5CCC6(CC5)CC(n5cnc7ccc(Oc8c(F)ccc(NS(=O)(=O)C9CC9)c8C#N)cc7c5=O)C6)C4)C3)cc21 [Compound 260]")
"< 1000 nM"
>>> observed_result("CCN(C)S(=O)(=O)Nc1ccc(F)c(Oc2ccc3ncn(C4CC5(CCN(C6CCN(c7cc8c(cc7F)c(N7CCC(=O)NC7=O)nn8C)CC6)C5)C4)c(=O)c3c2)c1C#N (single isomer, unassigned) [Compound 307]")
"1000 to 10000 nM"
>>> observed_result("CO[C@@H]1CCN(S(=O)(=O)Nc2ccc(F)c(Oc3ccc4ncn(C5CC6(CCN(C7CCC(c8cc9c(cc8F)c(N8CCC(=O)NC8=O)nn9C)CC7)CC6)C5)c(=O)c4c3)c2C#N)C1 (single isomer, unassigned) [Compound 101]")
"< 1000 nM"
>>> observed_result("CCN(C)S(=O)(=O)Nc1ccc(F)c(Oc2ccc3ncn([C@H]4COC5(CCC(N6CC7(CN(c8cc9c(cc8F)c(N8CCC(=O)NC8=O)nn9C)C7)C6)CC5)C4)c(=O)c3c2)c1C#N (stereo partly shown) [Compound 27]")
"< 1000 nM"
